Exercise: for every item that follows, state its recorded Postemergence herbicidal rating, GLXMAW.
Tested on: GLXMAW (Soybean, Williams)
Test: Postemergence herbicidal evaluation
Type: in vivo, Glycine max, (L.) Merr. cv Williams
Details: rate 0.0620 kg/ha
Answers are plain numbers.

The examples below pair each entry with its known result.
| compound | Postemergence herbicidal rating, GLXMAW |
| --- | --- |
| CC(=O)N1CCSC1c1nsc2ccc(-n3c(=O)cc(C(F)(F)F)n(C)c3=O)cc12 (centres unmarked) | 8.0 |
| Cc1ccn(-c2nsc3ccc(-n4c(=O)cc(C(F)(F)F)n(C)c4=O)cc23)n1 | 7.0 |

For each of the compounds below, state Postemergence herbicidal rating, GLXMAW.
1. CN(C(=O)c1nsc2ccc(-n3c(=O)cc(C(F)(F)F)n(C)c3=O)cc12)c1ccc(Cl)cc1
2. Cn1c(C(F)(F)F)cc(=O)n(-c2ccc3snc(C4OCCS4)c3c2)c1=O (centres unmarked)
3. Cn1c(C(F)(F)F)cc(=O)n(-c2ccc3snc(C4SCCN4C(=O)c4ccccc4)c3c2)c1=O (centres unmarked)

[8.0, 9.0, 6.5]

====

Tested on: ORYSAT (Rice, Tebonnet)
Assay: Postemergence herbicidal evaluation
Type: in vivo, Oryza sativa, (L.) Tebonnet
Conditions: rate 0.0620 kg/ha
readout_label: Postemergence herbicidal rating, ORYSAT
Give bare numbers.

The examples below pair each entry with its known result.
| molecule | assayed_system | readout_label | reported |
| --- | --- | --- | --- |
| COc1ccsc1-c1nsc2ccc(-n3c(=O)cc(C(F)(F)F)n(C)c3=O)cc12 | ORYSAT (Rice, Tebonnet) | Postemergence herbicidal rating, ORYSAT | 1.8 |
| Cn1c(C(F)(F)F)cc(=O)n(-c2ccc3snc(C4OCCO4)c3c2)c1=O | ORYSAT (Rice, Tebonnet) | Postemergence herbicidal rating, ORYSAT | 5.2 |
| COC(=O)C(C)Oc1ccsc1-c1nsc2ccc(-n3c(=O)cc(C(F)(F)F)n(C)c3=O)cc12 (stereo not shown) | ORYSAT (Rice, Tebonnet) | Postemergence herbicidal rating, ORYSAT | 3.5 |

Please state recorded Postemergence herbicidal rating, ORYSAT (tested on ORYSAT (Rice, Tebonnet)) of CCOc1cc(OCC)nc(-c2nsc3ccc(-n4c(=O)cc(C(F)(F)F)n(C)c4=O)cc23)n1
2.0

====

Exercise: for every item that follows, state its recorded AMBEL preemergence herbicidal rating.
Tested on: AMBEL (Ambrosia artemisifolia)
Assay: Preemergence herbicidal evaluation
Type: in vivo, L.
Settings: Rate 0.2500 kg/ha; preemergence; rated 4-5 weeks after treatment

The examples below pair each entry with its known result.
| smiles_input | assayed_system | reported |
| --- | --- | --- |
| Cn1c(C(F)(F)F)cc(=O)n(-c2ccc3snc(-c4cccs4)c3c2)c1=O | AMBEL (Ambrosia artemisifolia) | 9.0 |
| Cc1ccn(-c2nsc3ccc(-n4c(=O)cc(C(F)(F)F)n(C)c4=O)cc23)n1 | AMBEL (Ambrosia artemisifolia) | 7.0 |
| Cn1c(C(F)(F)F)cc(=O)n(-c2ccc3snc(C(SCCO)SCCO)c3c2)c1=O | AMBEL (Ambrosia artemisifolia) | 8.0 |
| Cn1c(C(F)(F)F)cc(=O)n(-c2ccc3snc(-c4ccccn4)c3c2)c1=O | AMBEL (Ambrosia artemisifolia) | 9.0 |
| Cn1c(C(F)(F)F)cc(=O)n(-c2ccc3snc(C4SCCS4)c3c2)c1=O | AMBEL (Ambrosia artemisifolia) | 9.0 |
| CCc1cc(-c2nsc3ccc(-n4c(=O)cc(C(F)(F)F)n(C)c4=O)cc23)c(CC)s1 | AMBEL (Ambrosia artemisifolia) | 9.0 |

What AMBEL preemergence herbicidal rating value was documented for this molecule, COc1ccsc1-c1nsc2ccc(-n3c(=O)cc(C(F)(F)F)n(C)c3=O)cc12 ?
7.0
